B1: OAS1 (parent)
chain: TPAKSLDKFIEDYLLPDTCFRMQI

# Variants of: B1
# ASSAY_PROTOCOL: protein stability index of a GFP-peptide fusion (GPS, HEK-293T) (PSI 1-6); higher = more stable;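 also: lentivirally expressed fusions sorted by FACS into six bins by GFP to DsRed ratio, PSI derived from sequencing read proportions per bin multiplied by bin number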
# STUDY_CONDITIONS: c terminus: a fixed tail appended
Here, each record is paired with measured protein stability index data.
ASSAY_ENDPOINT: protein stability index

INSERT INTO assay_data (mutant_name, assay_endpoint, data_value) VALUES
  ('L14C', 'protein stability index', 2.35),
  ('L14Y', 'protein stability index', 3.1),
  ('E11F', 'protein stability index', 2.29),
  ('Y13E', 'protein stability index', 1.79),
  ('M22Q', 'protein stability index', 1.5),
  ('D7H', 'protein stability index', 3.9),
  ('L15V', 'protein stability index', 3.19),
  ('I10C', 'protein stability index', 3.19),
  ('M22C', 'protein stability index', 2.94),
  ('E11W', 'protein stability index', 2.84),
  ('E11H', 'protein stability index', 1.26);
